The reported numbers originate from ChEMBL document CHEMBL1125129.

# Target system: Vasopressin V2 receptor (Rattus norvegicus)
# Sequence (Q00788 whole entry): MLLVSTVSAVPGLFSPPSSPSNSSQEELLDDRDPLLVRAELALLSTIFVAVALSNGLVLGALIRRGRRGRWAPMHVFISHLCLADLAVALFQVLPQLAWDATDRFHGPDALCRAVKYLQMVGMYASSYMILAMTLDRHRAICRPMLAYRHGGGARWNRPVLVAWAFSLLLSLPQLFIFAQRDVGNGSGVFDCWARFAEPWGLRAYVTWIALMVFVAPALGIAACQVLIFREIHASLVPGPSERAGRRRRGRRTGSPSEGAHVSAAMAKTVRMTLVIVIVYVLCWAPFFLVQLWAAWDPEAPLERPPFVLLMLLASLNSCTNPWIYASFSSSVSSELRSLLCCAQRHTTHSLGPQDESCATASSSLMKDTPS
# Procedure summary: Vasopressin V2 receptor antagonistic activity in vivo in anesthetized rats
# Format: functional, organism-based
# Setup conditions: read-out: pA2 (converted)
Kb reference
Expressed in µM, but write only the number.

1. CCOc1ccc(C[C@@H](NC(=O)CC23C[C@H]4C[C@@H](C2)C[C@@H](C3)C4)C(=O)N[C@@H](Cc2ccccc2)C(=O)N[C@H](C(=O)N[C@@H](CC(N)=O)C(=O)NCCCC(=O)N2CCC[C@H]2C(=O)N[C@@H](CCCN=C(N)N)C(=O)N[C@@H](CCCN=C(N)N)C(N)=O)C(C)C)cc1    0.00776
2. CCOc1ccc(C[C@@H](NC(=O)CC(C)(C)C)C(=O)N[C@@H](Cc2ccccc2)C(=O)N[C@H](C(=O)N[C@@H](CC(N)=O)C(=O)N[C@@H](CCCN=C(N)N)C(=O)N(C)[C@@H](C)C(=O)N[C@@H](CCCN=C(N)N)C(N)=O)C(C)C)cc1    0.251
3. NCCCC[C@H](NC(=O)[C@H](CC(N)=O)NC(=O)[C@H](CCC(N)=O)NC(=O)[C@H](Cc1ccccc1)NC(=O)[C@@H](Cc1ccc(O)cc1)NC(=O)Cc1ccccc1)C(=O)N1CCC[C@H]1C(=O)N[C@@H](CCCN=C(N)N)C(N)=O    0.0631

Please examine the following record next.
Record `CCOc1ccc(C[C@@H](NC(=O)CC(C)(C)C)C(=O)N[C@@H](Cc2ccccc2)C(=O)N[C@H](C(=O)N[C@@H](CC(N)=O)C(=O)NCCCC(=O)N2CCC[C@H]2C(=O)N[C@@H](CCCN=C(N)N)C(=O)N[C@@H](CCCN=C(N)N)C(N)=O)C(C)C)cc1` has Vasopressin V2 receptor (Rattus norvegicus) Kb equal to 0.0123

###

# Target system: Vasopressin V2 receptor (Rattus norvegicus) (UniProt Q00788)
# Procedure summary: Selectivity ratio of antidiuretic Vasopressin V2 receptor ED /[…] receptor ED
# Setup conditions: Urine
Value type: Ratio
Kindly provide the number alone.

Worked examples, 3 compounds total:
1) CCOc1ccc(C[C@@H](NC(=O)CC23CC4CC(CC(C4)C2)C3)C(=O)N[C@@H](Cc2ccccc2)C(=O)N[C@H](C(=O)N[C@@H](CC(N)=O)C(=O)N[C@@H](CCCN=C(N)N)C(=O)N2CCC[C@@H]2C(=O)N[C@@H](CCCN=C(N)N)C(=O)N[C@@H](CCCN=C(N)N)C(N)=O)C(C)C)cc1    1.4
2) CCOc1ccc(C[C@@H](NC(=O)Cc2ccccc2)C(=O)N[C@@H](Cc2ccccc2)C(=O)N[C@H](C(=O)N[C@@H](CC(N)=O)C(=O)N[C@@H](CCCCN)C(=O)N2CCC[C@@H]2C(=O)N[C@@H](CCCN=C(N)N)C(=O)N[C@@H](CCCN=C(N)N)C(N)=O)C(C)C)cc1    41
3) CCOc1ccc(C[C@@H](NC(=O)CC23CC4CC(CC(C4)C2)C3)C(=O)N[C@@H](Cc2ccccc2)C(=O)N[C@H](C(=O)N[C@@H](CC(N)=O)C(=O)N[C@@H](CCCN)C(=O)N2CCC[C@@H]2C(=O)N[C@@H](CCCN=C(N)N)C(N)=O)C(C)C)cc1    0.3

Here's the next entry for you.
Form field Ratio, entry `CCOc1ccc(C[C@@H](NC(=O)CC23CC4CC(CC(C4)C2)C3)C(=O)N[C@@H](Cc2ccccc2)C(=O)N[C@H](C(=O)N[C@@H](CC(N)=O)C(=O)N[C@@H](CCCCN)C(=O)N2CCC[C@@H]2C(=O)N[C@@H](CCCN=C(N)N)C(=O)N[C@@H](CCCN=C(N)N)C(N)=O)C(C)C)cc1` : 2.8
